- Tested on: Nucleic Acid
- experiment-description: Binding affinity to 14mer DNA assessed as change in melting temperature by spectrophotometry
- Type: nucleic-acid assay
# Lookup of reported ΔTm keyed by entry
Note: unit °C is implicit; provide only the numeric part.

See these solved cases before continuing.
Query `Cn1cc(NC(=O)c2cc(NC(=O)c3cc(NC(=O)c4nc(NC(=O)[C@H](N)CCNC(=O)c5nc(NC(=O)c6cc(NC(=O)c7nc(NC(=O)c8nccn8C)cn7C)cn6C)cn5C)cn4C)cn3C)cn2C)cc1C(=O)NCCCO/N=C\c1cccc(C(=O)O)c1` yields ΔTm of 0.8

Query `Cn1cc(NC(=O)c2cc(NC(=O)c3cc(NC(=O)c4nc(NC(=O)[C@H](N)CCNC(=O)c5nc(NC(=O)c6cc(NC(=O)c7nc(NC(=O)c8nccn8C)cn7C)cn6C)cn5C)cn4C)cn3C)cn2C)cc1C(=O)NCCCON` yields ΔTm of 0.1

Query `Cn1cc(NC(=O)c2cc(NC(=O)c3cc(NC(=O)c4nc(NC(=O)[C@H](N)CCNC(=O)c5nc(NC(=O)c6cc(NC(=O)c7nc(NC(=O)c8nccn8C)cn7C)cn6C)cn5C)cn4C)cn3C)cn2C)cc1C(=O)NCCCO/N=C\c1cccc(F)c1` yields ΔTm of 0.9

More entries:
Query `Cn1cc(NC(=O)c2cc(NC(=O)c3cc(NC(=O)c4nc(NC(=O)[C@H](N)CCNC(=O)c5nc(NC(=O)c6cc(NC(=O)c7nc(NC(=O)c8nccn8C)cn7C)cn6C)cn5C)cn4C)cn3C)cn2C)cc1C(=O)NCCCNC(=O)c1cccc(C(=O)O)c1` yields ΔTm of 0.5

* * *

# Lookup of reported ΔTm keyed by entry
- Test system: Nucleic Acid
- experiment-description: Binding affinity to 14mer DNA assessed as change in melting temperature by spectrophotometry
- Assay type: nucleic-acid assay
The answer should read as a number with its unit following.

See these solved cases before continuing.
Query `Cn1cc(NC(=O)c2cc(NC(=O)c3cc(NC(=O)c4nc(NC(=O)[C@H](N)CCNC(=O)c5nc(NC(=O)c6cc(NC(=O)c7nc(NC(=O)c8nccn8C)cn7C)cn6C)cn5C)cn4C)cn3C)cn2C)cc1C(=O)NCCCCCCCNC(=O)c1cccc(C(=O)O)c1` yields ΔTm of 0.7 °C

Query `Cn1cc(NC(=O)c2cc(NC(=O)c3cc(NC(=O)c4nc(NC(=O)[C@H](N)CCNC(=O)c5nc(NC(=O)c6cc(NC(=O)c7nc(NC(=O)c8nccn8C)cn7C)cn6C)cn5C)cn4C)cn3C)cn2C)cc1C(=O)NCCCN` yields ΔTm of 4.1 °C

More entries:
Query `Cn1cc(NC(=O)c2cc(NC(=O)c3nc(NC(=O)c4cc(NC(=O)[C@H](N)CCNC(=O)c5nc(NC(=O)c6cc(NC(=O)c7cc(NC(=O)c8nccn8C)cn7C)cn6C)cn5C)cn4C)cn3C)cn2C)cc1C(=O)NCCCO/N=C\c1ccc(F)cc1` yields ΔTm of 3.4 °C

Query `CN(CCCNC(=O)c1cccc(C(=O)O)c1)CCCNC(=O)c1cc(NC(=O)c2cc(NC(=O)c3nc(NC(=O)c4cc(NC(=O)[C@H](N)CCNC(=O)c5nc(NC(=O)c6cc(NC(=O)c7cc(NC(=O)c8nccn8C)cn7C)cn6C)cn5C)cn4C)cn3C)cn2C)cn1C` yields ΔTm of 4 °C

* * *

- System: U-251
- experiment-description: Cytotoxicity against human U251 cells at 0.002 to 10 uM after 48 hrs by WST1 assay
- Format: functional, cell-based
The source made the active and inactive calls. The calls are words filed in the database; no cut-off is given here.
quantity-kind: Activity

Query `NCCCO/N=C\c1cccc(C(=O)O)c1` yields Activity of inactive

Query `CC(=O)NCCCO/N=C\c1ccc(F)cc1` yields Activity of inactive

Query `CC(=O)NCCCO/N=C\c1cccc(C(=O)O)c1` yields Activity of inactive

Query `NCCCO/N=C\c1ccc(F)cc1` yields Activity of inactive

* * *

- Test system: Nucleic Acid
- experiment-description: Binding affinity to 14mer DNA assessed as change in melting temperature by spectrophotometry
- Type: nucleic-acid assay
quantity-kind: ΔTm (°C)
Note: unit °C is implicit; provide only the numeric part.

Query `Cn1cc(NC(=O)c2cc(NC(=O)c3cc(NC(=O)c4nc(NC(=O)[C@H](N)CCNC(=O)c5nc(NC(=O)c6cc(NC(=O)c7nc(NC(=O)c8nccn8C)cn7C)cn6C)cn5C)cn4C)cn3C)cn2C)cc1C(=O)NCCCO/N=C\c1ccc(F)cc1` yields ΔTm of 0.8

More entries:
Query `Cn1cc(NC(=O)c2cc(NC(=O)c3cc(NC(=O)c4nc(NC(=O)[C@H](N)CCNC(=O)c5nc(NC(=O)c6cc(NC(=O)c7nc(NC(=O)c8nccn8C)cn7C)cn6C)cn5C)cn4C)cn3C)cn2C)cc1C(=O)NCCCCCCCN` yields ΔTm of 2.1

Query `Cn1cc(NC(=O)c2cc(NC(=O)c3nc(NC(=O)c4cc(NC(=O)[C@H](N)CCNC(=O)c5nc(NC(=O)c6cc(NC(=O)c7cc(NC(=O)c8nccn8C)cn7C)cn6C)cn5C)cn4C)cn3C)cn2C)cc1C(=O)NCCCCCCCN` yields ΔTm of -0.9

* * *

# Lookup of reported ΔTm keyed by entry
- Tested on: Nucleic Acid
- experiment-description: Binding affinity to 14mer DNA assessed as change in melting temperature by spectrophotometry
- Type: nucleic-acid assay
Note: unit °C is implicit; provide only the numeric part.

Query `Cn1cc(NC(=O)c2cc(NC(=O)c3cc(NC(=O)c4nc(NC(=O)[C@H](N)CCNC(=O)c5cc(NC(=O)c6cc(NC(=O)c7cc(NC(=O)c8nccn8C)cn7C)cn6C)cn5C)cn4C)cn3C)cn2C)cc1C(=O)NCCCO/N=C\c1ccc(F)cc1` yields ΔTm of 13.1

Please turn your attention to the following entry.
Query `Cn1cc(NC(=O)c2cc(NC(=O)c3nc(NC(=O)c4cc(NC(=O)[C@H](N)CCNC(=O)c5nc(NC(=O)c6cc(NC(=O)c7cc(NC(=O)c8nccn8C)cn7C)cn6C)cn5C)cn4C)cn3C)cn2C)cc1C(=O)NCCCO/N=C\c1cccc(F)c1` yields ΔTm of 4

* * *

- Test system: Nucleic Acid
- experiment-description: Binding affinity to 14mer DNA assessed as change in melting temperature by spectrophotometry
- Format: nucleic-acid assay
quantity-kind: ΔTm (°C)
Note: unit °C is implicit; provide only the numeric part.

Query `CN(CCCNC(=O)c1cccc(C(=O)O)c1)CCCNC(=O)c1cc(NC(=O)c2cc(NC(=O)c3cc(NC(=O)c4nc(NC(=O)[C@H](N)CCNC(=O)c5nc(NC(=O)c6cc(NC(=O)c7nc(NC(=O)c8nccn8C)cn7C)cn6C)cn5C)cn4C)cn3C)cn2C)cn1C` yields ΔTm of 0.9

Query `CN(CCCN)CCCNC(=O)c1cc(NC(=O)c2cc(NC(=O)c3cc(NC(=O)c4nc(NC(=O)[C@H](N)CCNC(=O)c5nc(NC(=O)c6cc(NC(=O)c7nc(NC(=O)c8nccn8C)cn7C)cn6C)cn5C)cn4C)cn3C)cn2C)cn1C` yields ΔTm of 3.1

Query `Cn1cc(NC(=O)c2cc(NC(=O)c3nc(NC(=O)c4cc(NC(=O)[C@H](N)CCNC(=O)c5nc(NC(=O)c6cc(NC(=O)c7cc(NC(=O)c8nccn8C)cn7C)cn6C)cn5C)cn4C)cn3C)cn2C)cc1C(=O)NCCCON` yields ΔTm of 2

More entries:
Query `CN(CCCN)CCCNC(=O)c1cc(NC(=O)c2cc(NC(=O)c3nc(NC(=O)c4cc(NC(=O)[C@H](N)CCNC(=O)c5nc(NC(=O)c6cc(NC(=O)c7cc(NC(=O)c8nccn8C)cn7C)cn6C)cn5C)cn4C)cn3C)cn2C)cn1C` yields ΔTm of 6.4

Query `Cn1cc(NC(=O)c2cc(NC(=O)c3nc(NC(=O)c4cc(NC(=O)[C@H](N)CCNC(=O)c5nc(NC(=O)c6cc(NC(=O)c7cc(NC(=O)c8nccn8C)cn7C)cn6C)cn5C)cn4C)cn3C)cn2C)cc1C(=O)NCCCN` yields ΔTm of 5.3

* * *

- Test system: Nucleic Acid
- experiment-description: Binding affinity to 5'-TTGCAGAACAGCAA-3' sequence of DNA assessed as change in melting temperature by spectrophotometry
- Assay type: nucleic-acid assay
# Lookup of reported ΔTm keyed by entry
Note: unit °C is implicit; provide only the numeric part.

Query `Cn1cc(NC(=O)c2cc(NC(=O)c3cc(NC(=O)c4nc(NC(=O)[C@H](N)CCNC(=O)c5cc(NC(=O)c6cc(NC(=O)c7cc(NC(=O)c8nccn8C)cn7C)cn6C)cn5C)cn4C)cn3C)cn2C)cc1C(=O)NCCCON` yields ΔTm of 11.2

Please turn your attention to the following entry.
Query `Cn1cc(NC(=O)c2cc(NC(=O)c3cc(NC(=O)c4nc(NC(=O)[C@H](N)CCNC(=O)c5cc(NC(=O)c6cc(NC(=O)c7cc(NC(=O)c8nccn8C)cn7C)cn6C)cn5C)cn4C)cn3C)cn2C)cc1C(=O)NCCCCCCCN` yields ΔTm of 14.3
